- tested_target: SIRT1 (Homo sapiens)
- Sequence (Q96EB6 whole entry): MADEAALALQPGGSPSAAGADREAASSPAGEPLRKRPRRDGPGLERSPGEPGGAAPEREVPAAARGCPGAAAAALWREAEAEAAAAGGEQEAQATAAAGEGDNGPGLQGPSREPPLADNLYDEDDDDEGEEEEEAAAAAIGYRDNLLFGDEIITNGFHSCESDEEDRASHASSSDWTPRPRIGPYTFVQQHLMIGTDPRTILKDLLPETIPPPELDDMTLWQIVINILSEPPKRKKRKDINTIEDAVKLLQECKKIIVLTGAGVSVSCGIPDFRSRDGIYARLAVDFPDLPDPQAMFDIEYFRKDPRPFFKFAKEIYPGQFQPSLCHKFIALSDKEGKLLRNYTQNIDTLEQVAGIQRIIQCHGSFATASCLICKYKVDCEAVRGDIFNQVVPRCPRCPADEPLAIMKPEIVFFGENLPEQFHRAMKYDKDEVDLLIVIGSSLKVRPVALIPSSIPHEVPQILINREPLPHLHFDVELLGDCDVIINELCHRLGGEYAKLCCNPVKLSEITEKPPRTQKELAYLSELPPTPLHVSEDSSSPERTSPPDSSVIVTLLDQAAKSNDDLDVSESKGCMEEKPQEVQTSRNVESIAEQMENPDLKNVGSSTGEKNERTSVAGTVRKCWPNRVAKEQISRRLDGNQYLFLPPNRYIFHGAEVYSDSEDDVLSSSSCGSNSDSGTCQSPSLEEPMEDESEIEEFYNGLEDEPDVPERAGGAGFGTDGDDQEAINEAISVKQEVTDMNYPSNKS
- protocol_notes: Mass spectrometry based SIRT1 deacetylase activation assay (acetylated p53-derived peptide substrate)
- Assay type: biochemical
parameter_measured: EC1.5

In [3]: df
Out[3]:
                                item_smiles        measurement
0  O=C(Nc1ccc[n+]([O-])c1)c1cccc2[nH]c(-c3ccc(Cl)cc3C(F)(F)F)nc12   A (EC1.5<1.0 uM)
1  Cc1nn(-c2ccccc2)c(C)c1-c1nc2c(C(=O)Nc3nccs3)cccc2[nH]1   A (EC1.5<1.0 uM)
2  O=C(Nc1nccs1)c1cccc2[nH]c(-c3cc(Cl)ccc3C(F)(F)F)nc12  B (EC1.5 1-25 uM)
3  O=C(Nc1nccs1)c1cccc2[nH]c(-c3cccc(Cl)c3)nc12  B (EC1.5 1-25 uM)
4  O=C(Nc1ccncn1)c1cccc2[nH]c(-c3cccc(C(F)(F)F)c3)nc12  B (EC1.5 1-25 uM)
5  O=C(Nc1cccnc1Cl)c1cccc2[nH]c(-c3cccc(C(F)(F)F)c3)nc12  B (EC1.5 1-25 uM)
6  O=C(Nc1nccs1)c1cccc2[nH]c(-c3cccc(Cl)c3F)nc12  B (EC1.5 1-25 uM)
7  O=C(Nc1nccs1)c1cccc2[nH]c(-c3ccccc3N3CCCC3)nc12  B (EC1.5 1-25 uM)

The measured values listed here are drawn from patent US8846947B2.
